Recorded melting point by entry

Previously resolved entries follow.
molecule="O=C(NCCCCN1CCC(c2ccc3ccccc3c2)CC1)c1ccc(NC(=O)c2ccc(Cl)cc2)cc1 [Example 9]" reported_endpoint="melting point" endpoint_value="270 °C"
molecule="O=C(NCCCCN1CCC(c2cccc3ccccc23)CC1)c1ccc(NC(=O)c2ccc(Cl)cc2)cc1 [Example 11]" reported_endpoint="melting point" endpoint_value="264 °C"
molecule="CCOc1cc(C(C)C)ccc1C1CCN(CCCCNC(=O)c2ccc(NC(=O)c3ccc(Cl)cc3)cc2)CC1 [Example 6]" reported_endpoint="melting point" endpoint_value="242 °C"
molecule="COc1cc(C(C)C)ccc1C1CCN(CCCCNC(=O)c2ccc(NC(=O)c3ccc(Cl)cc3)cc2)CC1 [Example 5]" reported_endpoint="melting point" endpoint_value="241 °C"
molecule="Cn1cc(C2CCN(CCCCNC(=O)c3ccc(-c4ccc(C(F)(F)F)cc4)cc3)CC2)c2ccccc21 [Example 14]" reported_endpoint="melting point" endpoint_value="205 to 206 °C"

Qu. Given CCOc1cc(CC)ccc1C1CCN(CCCCNC(=O)c2ccc(NC(=O)c3ccc(Cl)cc3)cc2)CC1 [Example 3] , state its recorded melting point.
Ans. 250 °C

Qu. Given COc1ccc(C2CCN(CCCCNC(=O)c3ccc(NC(=O)c4ccc(Cl)cc4)cc3)CC2)c(OC)c1.Cl , state its recorded melting point.
Ans. 238 °C

Qu. Given O=C(NCCCCN1CCC(c2ccc3c(c2)OCO3)CC1)c1ccc(NC(=O)c2ccc(Cl)cc2)cc1 [Example 8] , state its recorded melting point.
Ans. 238 to 248 °C

---

Recorded melting point by entry
Quick note: give the figure in °C, leave out the unit.

Previously resolved entries follow.
molecule="O=C(NCCCCN1CCC(c2csc3ccccc23)CC1)c1ccc(-c2ccc(C(F)(F)F)cc2)cc1 [Example 16]" endpoint_value=264
molecule="COc1cc(C(C)C)ccc1C1CCN(CCCCNC(=O)c2sc(-c3ccc(C(F)(F)F)cc3)nc2C)CC1 [Example 27]" endpoint_value=170
molecule="CCOc1cc(C)ccc1N(C1CCN(CCCCNC(=O)c2ccc(-c3ccc(C(F)(F)F)cc3)cc2)CC1)S(=O)(=O)c1ccccc1 [Example 20]" endpoint_value=110
molecule="CCOc1cc(C)ccc1C1CCN(CCCCNC(=O)c2ccc(NC(=O)c3ccc(Cl)cc3)cc2)CC1 [Example 2]" endpoint_value=254
molecule="Cn1cc(C2CCN(CCCCNC(=O)c3ccc(-c4ccc(C#N)cc4)cc3)CC2)c2ccccc21 [Example 40]" endpoint_value=180
molecule="COc1cc(C)ccc1N1CCN(CCCCNC(=O)c2ccc(NC(=O)c3ccc(Cl)cc3)cc2)CC1.Cl (hydrate or solvate)" endpoint_value=227

Qu. Given CCOc1cc(C)ccc1C1CCN(CCCCNC(=O)c2ccc(C=Cc3ccc(C(F)(F)F)cc3)cc2)CC1 [Example 33] , state its recorded melting point.
Ans. 210

Qu. Given CCOc1cc(C)ccc1C1CCN(CCCCNC(=O)c2ccc3oc(-c4ccc(C(F)(F)F)cc4)cc3c2)CC1 [Example 29] , state its recorded melting point.
Ans. 200

Qu. Given O=C(NCCCCN1CCC(c2ccc3c(c2)CCCC3)CC1)c1ccc(NC(=O)c2ccc(Cl)cc2)cc1 [Example 10] , state its recorded melting point.
Ans. 285

---

Recorded melting point by entry

compound=CCOc1cc(C)ccc1C1CCN(CCCCNS(=O)(=O)c2ccc(-c3ccc(C(F)(F)F)cc3)cc2)CC1.Cl reported_endpoint="melting point" endpoint_value="188 to 190 °C"
compound="CCOc1cc(C)ccc1C1CCN(CCCCNC(=O)c2ccc3oc(-c4ccc(Cl)cc4)cc3c2)CC1 [Example 30]" reported_endpoint="melting point" endpoint_value="145 to 158 °C"
compound="CCOc1cc(C)ccc1C1CCN(CCCCNC(=O)c2ccc(OCc3ccc(C(F)(F)F)cc3)cc2)CC1 [Example 34]" reported_endpoint="melting point" endpoint_value="180 to 182 °C"
compound="CCOc1ccc(CC2CCN(CCCCNC(=O)c3ccc(-c4ccc(C(F)(F)F)cc4)cc3)CC2)c(OCC)c1 [Example 38]" reported_endpoint="melting point" endpoint_value="136 to 137 °C"

Qu. Given CSc1ccccc1C1CCN(CCCCNC(=O)c2ccc(-c3ccc(C(F)(F)F)cc3)cc2)CC1 [Example 13] , state its recorded melting point.
Ans. 191 to 192 °C

Qu. Given CCOc1cc(C)ccc1C1CCN(CCCCNC(=O)c2ccc3c(c2)cc(-c2ccc(Cl)cc2)n3C)CC1 [Example 28] , state its recorded melting point.
Ans. 174 to 175 °C

Qu. Given CCc1ccc(C2CCN(CCCCNC(=O)c3ccc(NC(=O)c4ccc(Cl)cc4)cc3)CC2)c(OC)c1 [Example 4] , state its recorded melting point.
Ans. 235 °C

Qu. Given CCOc1cc(C)ccc1NC1CCN(CCCCNC(=O)c2ccc(-c3ccc(C(F)(F)F)cc3)cc2)CC1 [Example 19] , state its recorded melting point.
Ans. 162 °C

Qu. Given CCOc1cc(C)ccc1C1CCN(CCCCC(=O)Nc2ccc(-c3ccc(C(F)(F)F)cc3)cc2)CC1 [Example 24] , state its recorded melting point.
Ans. 178 °C
